- System: UO-31 renal
- test: NCI tumour cell line growth inhibition, 48 h
Measured TGI by item

Enquiry: Provide TGI, recorded with UO-31 renal, of C/C=C\C(CC(=O)O)CN1CCC2=C(C1)C(S(=O)(=O)C(F)(F)F)c1ccccc12 (centres undefined)
Return: > 100 µM

Enquiry: Provide TGI, recorded with UO-31 renal, of CC1=Nn2c(nnc2-c2ccc(Cl)cc2)NC(C)(C)C1
Return: > 100 µM

Enquiry: Provide TGI, recorded with UO-31 renal, of CN(CCNC(=O)c1nn(-c2ccccc2)c2c1ccc1ccccc12)CCNC(=O)c1nn(-c2ccccc2)c2c1ccc1ccccc12
Return: 3.78 µM

---

- System: UO-31 renal
- test: NCI tumour cell line growth inhibition, 48 h
Measured TGI by item

Examples with their reported TGI follow.
> print(dat)
                                   compound  measure  measuredresult
1      CCn1ncc(Oc2c(Cl)cc(N)cc2Cl)c(Cl)c1=O      TGI        > 100 µM
2  C=CCOC(C)n1c(C)c(Br)c(=O)[nH]c1=O (stereo not given)      TGI        > 100 µM
3  COc1ccc(-c2c(C#N)c(N)nc3c2COc2ccc(F)cc2-3)cc1OC      TGI         57.9 µM
4  COc1cc2c(cc1OC)[Se]c1cc(OC)c(OC)cc1[Se]2      TGI        > 100 µM
5  CC(=O)/C=C\C1CC2C=CC1C2 (stereo not given)      TGI        > 100 µM

Enquiry: Tell us which TGI value is on record for N.N.NCCCCCCN.O=C([O-])CCl.O=C([O-])CCl.O=C([O-])CCl.O=C([O-])CCl.[Pt+4].[Pt+4]
Return: > 50 µM

Enquiry: Tell us which TGI value is on record for CCOc1ccc2nc3cc(N=Nc4ccc(N)nc4N)ccc3c(N)c2c1
Return: > 66.3 µM

Enquiry: Tell us which TGI value is on record for Cc1ccc(S(=O)(=O)NCCN(CCNS(=O)(=O)c2ccc(C)cc2)S(=O)(=O)c2ccc(C)cc2)cc1
Return: > 100 µM

Enquiry: Tell us which TGI value is on record for COc1cc2c(c(OC)c1OC)-c1ccc(SC)c(=O)cc1[C@@H](OC(=O)c1ccncc1)CC2
Return: 52.6 µM

Enquiry: Tell us which TGI value is on record for COc1cc2c(cc1OCCCCCN1CCN(c3cc(=O)oc4ccccc34)CC1)N=C[C@@H]1CCCN1C2=O
Return: 11.4 µM

---

- System: HT29 colon
- test: NCI tumour cell line growth inhibition, 48 h
measure: TGI (µM)
Just the number please, in µM, no unit attached.

Examples with their reported TGI follow.
> print(dat)
                                   compound      target  measure  measuredresult
1  Cc1cc(C)nc(NS(=O)(=O)c2ccc(NC(=O)c3ccc(Cl)c4c(Nc5ccc(S(=O)(=O)Nc6cc(C)on6)cc5)c5ccccc5nc34)cc2)n1  HT29 colon      TGI            35.8
2  COC(=O)C([C@H]1CC[C@H](OCc2ccccc2)[C@@]1(O)COCc1ccccc1)C(C)(O)CCc1ccccc1 (stereo partly drawn)  HT29 colon      TGI            22.2
3  CCC[CH2][Sn]([CH2]CCC)([O]C(=O)c1ccc(C)c(N)c1)[O]C(=O)c1ccc(C)c(N)c1  HT29 colon      TGI            2.64

Here is the next item to consider.
Enquiry: Tell us which TGI value is on record for CC(=O)OC1Oc2ccc(C)cc2-c2oc(=O)c(-c3cc4ccccc4oc3=O)cc21 (stereo not drawn)
Return: 34

---

Measured TGI by item
- Test system: TK-10 renal
- test: NCI tumour cell line growth inhibition, 48 h

> print(dat)
         compound  measure  measuredresult
1  O=C(O)c1sccc1O      TGI        > 100 µM

Enquiry: Tell us which TGI value is on record for ClC1=C(Cl)C(Cl)=C(Cl)C1=Cc1ccccc1
Return: 2.02 µM

---

- Test system: OVCAR-3 ovarian
- test: NCI tumour cell line growth inhibition, 48 h; in the data active means GI50 below about 0.43 µM; inactive means the rest
*1 amine or outer side, *2 acyl side, *3 side chain or, on linkers, in order; H or OH if unused. Where a SMILES comes first, the peptide text is derived from it. Bridges are numbered along the chain shown (N, C = ends). [ ]: non-standard residue; d: D form. The star is where a group is joined. Phe(3,5-F2) = N[C@@H](Cc1cc(F)cc(F)c1)C(=O)O; Pro(4R-Me) = C[C@H]1CN[C@H](C(=O)O)C1; aThr = C[C@H](O)[C@H](N)C(=O)O; Pip = O=C(O)[C@@H]1CCCCN1; X10 = Fc1cc(C2CC2)ccc1N*; Abu = CC[C@H](N)C(=O)O; CO = O=C([*:1])[*:2]
Pick one: 1 (yes) for active, 0 (no) for inactive

compound	labelClass
COc1ccc(-c2c(C#N)c(N)nc3c2COc2ccc(F)cc2-3)cc1OC	0 (no)
CC[C@@H]1NC(=O)[C@@H]2CCCCN2C(=O)[C@@H]2CCCN2C(=O)[C@@H](NC(=O)[C@H](Cc2cc(F)cc(F)c2)NC(=O)Nc2ccc(C3CC3)cc2F)[C@H](C)OC(=O)[C@@H]2C[C@@H](C)CN2C1=O ({X10-CO}-[Phe(3,5-F2)][aThr]P[Pip][Abu][Pro(4R-Me)]; ester 2-C)	1 (yes)
CCC(=C/[C@H](C)C/C=C/C(C)=C/[C@@H](C)C(=O)[C@@H](C)[C@H](O)[C@@H](C)CC)/C=C/[C@@H]1OC(=O)C=C[C@@H]1C	1 (yes)
COc1cc(OC)cc(C2C(C#N)=C(N)Oc3c2ccc2ccc(O)cc32)c1 (centres undefined)	1 (yes)
CCn1cc(C(=O)N/N=C/c2ccc(Br)cc2)c(=O)c2cc(F)c(N3CCNC(C)C3)c(F)c21 (centres undefined)	0 (no)
FC(F)(F)CNc1nccc(-c2cnn3ncccc23)n1	0 (no)
COc1ccc(C(O)c2cc3c(N)c(C(=O)Nc4cccc(OC)c4)sc3nc2C)cc1 (centres undefined)	0 (no)
Oc1ccc(-c2cn3ccsc3n2)cc1O	0 (no)
CCCCCCCCCCCC[C@H](O)[C@H]1CC[C@H]([C@H](O)CCCC[C@H](O)CCCCC[C@@H](O)CC2=C[C@H](C)OC2=O)O1	0 (no)
O=C1Nc2ccccc2C1(c1c[nH]c2ccccc12)c1c[nH]c2ccccc12	0 (no)

Enquiry: Call for entry N.N.NCCCCCCN.O=C([O-])CCl.O=C([O-])CCl.O=C([O-])CCl.O=C([O-])CCl.[Pt+4].[Pt+4] :
Return: 0 (no)

Enquiry: Call for entry COc1cc2c(cc1OCCCCCN1CCN(c3cc(=O)oc4ccccc34)CC1)N=C[C@@H]1CCCN1C2=O :
Return: 1 (yes)

Enquiry: Call for entry CC1SC(c2ccc(Cl)c(Cl)c2)N(NC(=O)C(O)c2ccccc2)C1=O (centres undefined) :
Return: 0 (no)

Enquiry: Call for entry COc1cc(NC(=O)c2ccc(C(F)(F)F)nc2Nc2ccc(Cl)cc2C)cc(OC)c1OC :
Return: 0 (no)

---

Measured TGI by item
- Tested on: UO-31 renal
- test: NCI tumour cell line growth inhibition, 48 h
Just the number please, in µM, no unit attached.

Examples with their reported TGI follow.
> print(dat)
                            smilesstructure  measure  measuredresult
1  CCC[CH2][Sn]([CH2]CCC)([O]C(=O)c1ccc(C)c(N)c1)[O]C(=O)c1ccc(C)c(N)c1      TGI            2.31
2  CCCCn1c(C)c(C(=O)CC)c(C(=O)NCCN2CCN(c3ccccc3Cl)CC2)c1C      TGI            27.1
3  COc1cc(NC(=O)c2ccc(C(F)(F)F)nc2Nc2ccc(Cl)cc2C)cc(OC)c1OC      TGI            17.9

Enquiry: Tell us which TGI value is on record for O=C(CNc1c(Cl)cccc1Cl)Nc1ccc(-c2nc3ccccc3s2)cc1
Return: 9.13

---

- System: PC-3 prostate
- test: NCI tumour cell line growth inhibition, 48 h
Measured TGI by item

Examples with their reported TGI follow.
> print(dat)
                                   compound  measure  measuredresult
1  Cn1c(-c2c(N)n(Cc3ccc(C(F)(F)F)cc3)c3nc(C#N)c(C#N)nc23)nc2ccccc21      TGI         69.6 µM
2  COc1cc(-c2nn(-c3ccc(NC(=O)NCCCNC(=O)c4ccccc4)cc3)cc2-c2ccncc2)ccc1Cl      TGI        > 100 µM
3  COc1cc2c(cc1OCCCNC(=O)/C=C1/C[C@H]3C=Nc4cc(OCc5ccccc5)c(OC)cc4C(=O)N3C1)NC(=O)[C@@H]1CCCN1C2=O      TGI        > 100 µM

Enquiry: Provide TGI, recorded with PC-3 prostate, of COc1ccc(C(O)c2cc3c(N)c(C(=O)Nc4cccc(OC)c4)sc3nc2C)cc1 (stereo not given)
Return: 3.04 µM

Enquiry: Provide TGI, recorded with PC-3 prostate, of CC1(C(=O)O)CCC(C(=O)O)C(C)(C)O1 (stereo not given)
Return: > 100 µM

Enquiry: Provide TGI, recorded with PC-3 prostate, of NC(Cc1c[nH]c2ccccc12)P(=O)(O)O (stereo not given)
Return: > 100 µM
